Record form. Attribute: protein stability index. Fill in for each entry.
B1: PLAGL1 (parent)
chain: CKDFLCQFCAQRFGRKDHLTRHTK

Variants of: B1
ASSAY REMARKS: protein stability index of a GFP-peptide fusion (GPS, HEK-293T) (PSI 1-6); higher = more stable;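 further: lentivirally expressed fusions sorted by FACS into six bins by GFP to DsRed ratio, PSI derived from sequencing read proportions per bin multiplied by bin number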
APPLIED CONDITIONS: c terminus: a fixed tail appended
Number only, no unit.

// recorded protein stability index for R21Y : 1.85

// recorded protein stability index for F13Y : 1.99

// recorded protein stability index for H22T : 2.57

// recorded protein stability index for R15N : 1.83

// recorded protein stability index for L5G : 2.23

// recorded protein stability index for L5K : 2.08

// recorded protein stability index for C1H : 2.02

// recorded protein stability index for D17F : 2.08

// recorded protein stability index for C6H : 2.25

// recorded protein stability index for T23G : 2.15

// recorded protein stability index for R15P : 1.66

// recorded protein stability index for R21W : 2.16

// recorded protein stability index for K24G : 1.74

// recorded protein stability index for R12L : 1.47

// recorded protein stability index for L19C : 2.25

// recorded protein stability index for T23H : 2.02

// recorded protein stability index for C9E : 2

// recorded protein stability index for G14R : 2.12

// recorded protein stability index for L5N : 2.23

// recorded protein stability index for T20C : 3.02

// recorded protein stability index for K16G : 2.15

// recorded protein stability index for F13R : 2.54
